# protocol.summary: MB-102 plasma concentration (HPLC) after oral dose in healthy and Crohn's disease participants
# Type: in vivo, human
# experimental.setup: human, plasma, po, Crohn's Disease Participant, 720 min post-administration
result.type: concentration at 720 min
# output: number + unit

query: Tell me measured concentration at 720 min for Nc1nc(C(=O)N[C@H](CO)C(=O)O)c(N)nc1C(=O)N[C@H](CO)C(=O)O please.
result: 26.5 ng/mL

###

# protocol.summary: MB-102 plasma concentration (HPLC) after oral dose in healthy and Crohn's disease participants
# Format: in vivo, human
# experimental.setup: human, plasma, po, Crohn's Disease Participant, 360 min post-administration
result.type: concentration at 360 min (ng/mL)
Answers are plain numbers, in ng/mL.

query: Tell me measured concentration at 360 min for Nc1nc(C(=O)N[C@H](CO)C(=O)O)c(N)nc1C(=O)N[C@H](CO)C(=O)O please.
result: 63.1
